# measured.on: TRPM8 (Rattus norvegicus, UniProt Q8R455)
# Construct: from tissue; host or cells: whole animal, female SD rats (in vivo)
# Sequence (Q8R455 whole entry): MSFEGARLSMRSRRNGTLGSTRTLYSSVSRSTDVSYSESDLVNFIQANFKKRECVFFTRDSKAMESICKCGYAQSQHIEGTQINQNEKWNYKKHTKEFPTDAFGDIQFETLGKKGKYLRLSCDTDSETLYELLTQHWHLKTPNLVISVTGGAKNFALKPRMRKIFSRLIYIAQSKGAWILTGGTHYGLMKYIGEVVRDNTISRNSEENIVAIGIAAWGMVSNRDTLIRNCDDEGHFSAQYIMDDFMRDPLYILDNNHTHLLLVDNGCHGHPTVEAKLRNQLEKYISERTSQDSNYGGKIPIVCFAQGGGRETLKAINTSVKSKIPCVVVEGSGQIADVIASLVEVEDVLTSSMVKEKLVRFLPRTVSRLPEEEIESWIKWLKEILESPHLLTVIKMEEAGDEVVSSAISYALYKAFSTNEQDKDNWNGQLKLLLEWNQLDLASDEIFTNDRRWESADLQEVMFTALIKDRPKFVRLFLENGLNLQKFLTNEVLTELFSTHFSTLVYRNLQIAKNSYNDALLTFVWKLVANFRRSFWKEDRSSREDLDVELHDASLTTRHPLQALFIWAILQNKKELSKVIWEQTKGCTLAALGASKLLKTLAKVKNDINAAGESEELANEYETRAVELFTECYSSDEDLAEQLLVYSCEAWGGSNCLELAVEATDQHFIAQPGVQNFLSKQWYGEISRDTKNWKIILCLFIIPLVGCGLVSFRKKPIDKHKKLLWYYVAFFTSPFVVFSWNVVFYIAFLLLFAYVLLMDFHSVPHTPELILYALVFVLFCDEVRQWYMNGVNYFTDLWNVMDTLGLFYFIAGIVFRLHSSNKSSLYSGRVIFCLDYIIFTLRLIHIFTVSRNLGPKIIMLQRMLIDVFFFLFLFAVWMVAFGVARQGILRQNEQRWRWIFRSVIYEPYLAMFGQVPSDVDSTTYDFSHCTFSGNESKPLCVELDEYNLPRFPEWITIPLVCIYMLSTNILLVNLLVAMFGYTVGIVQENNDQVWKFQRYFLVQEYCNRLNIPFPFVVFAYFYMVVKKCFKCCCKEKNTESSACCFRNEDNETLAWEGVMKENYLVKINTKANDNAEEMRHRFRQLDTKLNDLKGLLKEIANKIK
# assay.procedure: Confirmation test of inhibitory effects on icilin-induced wet-dog shakes
# Type: in vivo
# cond: female SD rats, oral dose 1 mg/kg, icilin 1 mg/kg i.p. 1 hour after dosing, shakes counted for 5 minutes
Listed next: entries and their corresponding % inhibition of Wet-Dog Shake.

molecule: CO[C@H](CO)[C@@H](Cc1nccs1)NC(=O)c1cccc(F)c1-c1cc(-c2ccc(F)cc2)[nH]n1
measured.on: TRPM8 (Rattus norvegicus, UniProt Q8R455)
% inhibition of Wet-Dog Shake (%): 80
//
molecule: O=C(N[C@@H](CCO)Cc1ccccn1)c1cccc(F)c1-c1cc(-c2ccc(F)cc2)[nH]n1
measured.on: TRPM8 (Rattus norvegicus, UniProt Q8R455)
% inhibition of Wet-Dog Shake (%): 82
//
molecule: O=C(N[C@@H](CCO)Cc1ccccn1)c1ccccc1-c1n[nH]c(-c2ccc(F)cc2)c1F
measured.on: TRPM8 (Rattus norvegicus, UniProt Q8R455)
% inhibition of Wet-Dog Shake (%): 85
//
molecule: CO[C@H](CO)[C@@H](Cn1nccn1)NC(=O)c1cccc(F)c1-c1cc(-c2ccc(F)cc2)[nH]n1
measured.on: TRPM8 (Rattus norvegicus, UniProt Q8R455)
% inhibition of Wet-Dog Shake (%): 100
//
molecule: O=C(N[C@H](Cn1cccn1)C(F)(F)CO)c1cccc(F)c1-c1cc(-c2ccc(F)cc2)[nH]n1
measured.on: TRPM8 (Rattus norvegicus, UniProt Q8R455)
% inhibition of Wet-Dog Shake (%): 92
//
molecule: CO[C@H](CO)[C@@H](Cc1ccccn1)NC(=O)c1ccccc1-c1n[nH]c(-c2ccc(Cl)cc2)c1F
measured.on: TRPM8 (Rattus norvegicus, UniProt Q8R455)
% inhibition of Wet-Dog Shake (%): 85
//
molecule: CO[C@H](CO)[C@@H](Cn1cccn1)NC(=O)c1cccc(F)c1-c1cc(-c2ccc(F)cc2)[nH]n1
measured.on: TRPM8 (Rattus norvegicus, UniProt Q8R455)
% inhibition of Wet-Dog Shake (%): 84
//
molecule: O=C(N[C@@H](CO)C(F)(F)c1ccccn1)c1cccc(F)c1-c1cc(-c2ccc(F)cc2)[nH]n1
measured.on: TRPM8 (Rattus norvegicus, UniProt Q8R455)
% inhibition of Wet-Dog Shake (%): 59
//
molecule: O=C(N[C@H](Cc1ccccn1)C(F)(F)CO)c1cccc(F)c1-c1cc(-c2ccc(F)cc2)[nH]n1
measured.on: TRPM8 (Rattus norvegicus, UniProt Q8R455)
% inhibition of Wet-Dog Shake (%): 100
//
molecule: O=C(N[C@H](Cn1cccn1)[C@H](O)CF)c1cccc(F)c1-c1cc(-c2ccc(F)cc2)[nH]n1
measured.on: TRPM8 (Rattus norvegicus, UniProt Q8R455)
% inhibition of Wet-Dog Shake (%): 55
//
molecule: O=C(N[C@H](Cn1nccn1)[C@H](F)CO)c1cccc(F)c1-c1cc(-c2ccc(F)cc2)[nH]n1
measured.on: TRPM8 (Rattus norvegicus, UniProt Q8R455)
% inhibition of Wet-Dog Shake (%): 100
//
molecule: CCO[C@H](CO)[C@@H](Cc1ccccn1)NC(=O)c1cccc(F)c1-c1cc(-c2ccc(F)cc2)[nH]n1
measured.on: TRPM8 (Rattus norvegicus, UniProt Q8R455)
% inhibition of Wet-Dog Shake (%): 73
//
molecule: O=C(N[C@@H](CO)Cc1ccccn1)c1cccc(F)c1-c1cc(-c2ccc(F)cc2)[nH]n1
measured.on: TRPM8 (Rattus norvegicus, UniProt Q8R455)
% inhibition of Wet-Dog Shake (%): 59
//
molecule: O=C(N[C@H](Cc1ccccn1)[C@H](F)CO)c1cccc(F)c1-c1cc(-c2ccc(F)cc2)[nH]n1
measured.on: TRPM8 (Rattus norvegicus, UniProt Q8R455)
% inhibition of Wet-Dog Shake (%): 100
//
molecule: COC[C@@H](O)[C@@H](Cc1ccccn1)NC(=O)c1cccc(F)c1-c1n[nH]c(-c2ccc(F)cc2)c1F
measured.on: TRPM8 (Rattus norvegicus, UniProt Q8R455)
% inhibition of Wet-Dog Shake (%): 68
//
molecule: O=C(N[C@H](Cn1cccn1)[C@H](F)CO)c1cccc(F)c1-c1cc(-c2ccc(F)cc2)[nH]n1
measured.on: TRPM8 (Rattus norvegicus, UniProt Q8R455)
% inhibition of Wet-Dog Shake (%): 54
//
molecule: O=C(N[C@@H]([C@H](O)CO)C(F)(F)c1ccccn1)c1cccc(F)c1-c1cc(-c2ccc(F)cc2)[nH]n1
measured.on: TRPM8 (Rattus norvegicus, UniProt Q8R455)
% inhibition of Wet-Dog Shake (%): 56
//
molecule: CO[C@H](CO)[C@@H](Cn1cccn1)NC(=O)c1cccc(F)c1-c1cc(-c2ccc(Cl)cc2)[nH]n1
measured.on: TRPM8 (Rattus norvegicus, UniProt Q8R455)
% inhibition of Wet-Dog Shake (%): 51
//
molecule: O=C(N[C@H](Cc1ncccn1)[C@H](F)CO)c1cccc(F)c1-c1cc(-c2ccc(F)cc2)[nH]n1
measured.on: TRPM8 (Rattus norvegicus, UniProt Q8R455)
% inhibition of Wet-Dog Shake (%): 79
//
molecule: CO[C@H](CO)[C@@H](Cc1ncccn1)NC(=O)c1cccc(F)c1-c1cc(-c2ccc(F)cc2)[nH]n1
measured.on: TRPM8 (Rattus norvegicus, UniProt Q8R455)
% inhibition of Wet-Dog Shake (%): 66
//
molecule: O=C(N[C@H](Cn1cccn1)[C@H](F)CO)c1cccc(F)c1-c1n[nH]c(-c2ccc(F)cc2)c1F
measured.on: TRPM8 (Rattus norvegicus, UniProt Q8R455)
% inhibition of Wet-Dog Shake (%): 81
//
molecule: CC(CO)[C@@H](Cc1ccccn1)NC(=O)c1cccc(F)c1-c1cc(-c2ccc(F)cc2)[nH]n1 (stereo partly shown)
measured.on: TRPM8 (Rattus norvegicus, UniProt Q8R455)
% inhibition of Wet-Dog Shake (%): 38
//
molecule: O=C(N[C@H](Cc1ccccn1)[C@@H](F)CO)c1cccc(F)c1-c1cc(-c2ccc(F)cc2)[nH]n1
measured.on: TRPM8 (Rattus norvegicus, UniProt Q8R455)
% inhibition of Wet-Dog Shake (%): 100
//
molecule: CO[C@H](CO)[C@@H](Cc1ncccn1)NC(=O)c1cccc(F)c1-c1cc(-c2ccc(Cl)cc2)[nH]n1
measured.on: TRPM8 (Rattus norvegicus, UniProt Q8R455)
% inhibition of Wet-Dog Shake (%): 73
//
molecule: CO[C@H](CO)[C@@H](Cc1ccccn1)NC(=O)c1cccc(F)c1-c1n[nH]c(-c2ccc(F)cc2)c1F
measured.on: TRPM8 (Rattus norvegicus, UniProt Q8R455)
% inhibition of Wet-Dog Shake (%): 100
//
molecule: O=C(N[C@@H](CCO)Cc1ncccc1F)c1cccc(F)c1-c1cc(-c2ccc(F)cc2)[nH]n1
measured.on: TRPM8 (Rattus norvegicus, UniProt Q8R455)
% inhibition of Wet-Dog Shake (%): 56
//
molecule: CO[C@H](CO)[C@@H](Cn1cccn1)NC(=O)c1ccccc1-c1cc(-c2ccc(F)cc2)[nH]n1
measured.on: TRPM8 (Rattus norvegicus, UniProt Q8R455)
% inhibition of Wet-Dog Shake (%): 88
//
molecule: CO[C@H](CO)[C@@H](Cn1cccn1)NC(=O)c1cccc(F)c1-c1n[nH]c(-c2ccc(F)cc2)c1F
measured.on: TRPM8 (Rattus norvegicus, UniProt Q8R455)
% inhibition of Wet-Dog Shake (%): 90
